Data origin: ChEMBL document CHEMBL1125415

# System: Mus musculus
# assay_remarks: Antihyperglycemic activity in mice at a dose of 100 mg/kg
# Assay type: functional
Each entry below carries its reported Decrease.

// worked examples, Decrease included
> print(dat)
                                   compound  recorded.result
1  O=S1NC(Cc2cc3cc(F)ccc3s2)=NO1 (centres undefined)             <15%
2  O=S1NC(Cc2ccc(-c3ccccc3)cc2)=NO1 (centres undefined)             <15%
3  O=S1NC(Cc2coc3ccc(Br)cc23)=NO1 (centres undefined)             <15%

// switching to the query compound
Look up Decrease of O=S1NC(Cc2ccc(OCc3ccccc3)cc2)=NO1 (centres undefined) and report it. <-15%
